Test system: Trypanosoma brucei rhodesiense
Test: microbe, parasite or virus in culture
Details: STIB900, 72 h
Description: Antiprotozoal activity against Trypanosoma brucei rhodesiense STIB900 trypomastigotes incubated for 72 hrs by resazurin dye based fluorimetric analysis
OBSERVED_PROPERTY: IC90 (µM)

Solved entries:
> print(dat)
                                   molecule  value.units  value
1  O=C(c1cc(C2CC2)on1)N1CCCC(c2cc3ncccc3[nH]2)C1 (stereo unspecified)           µM     32
2      O=C(NCCc1nc2ncc(Cl)cc2[nH]1)c1ccccc1           µM     64
3  O=C(c1ccccc1)N1CCC(O)(c2cc3ncccc3[nH]2)CC1           µM     64
4  N#Cc1cnc2cc(C3CCCN(C(=O)c4cc(C(F)(F)F)no4)C3)[nH]c2c1 (stereo unspecified)           µM     64

[I] O=C(c1ccc(F)cc1)N1CC=C(c2cc3ncccc3[nH]2)CC1
[II] COc1cccc2[nH]c(C(=O)N3CCCC(c4cc5ncccc5[nH]4)C3)cc12 (stereo unspecified)
Q) Dear colleague, could you let me know whether I or II has the lower recorded IC90? Thanks. Choose, then provide that item's label.
A) II
(II: 23.4 µM, I: 64 µM)
